# key: entry, value: pEC50
Study system: Transient receptor potential cation channel subfamily M member 8 (Homo sapiens)
Sequence (Q7Z2W7 whole entry): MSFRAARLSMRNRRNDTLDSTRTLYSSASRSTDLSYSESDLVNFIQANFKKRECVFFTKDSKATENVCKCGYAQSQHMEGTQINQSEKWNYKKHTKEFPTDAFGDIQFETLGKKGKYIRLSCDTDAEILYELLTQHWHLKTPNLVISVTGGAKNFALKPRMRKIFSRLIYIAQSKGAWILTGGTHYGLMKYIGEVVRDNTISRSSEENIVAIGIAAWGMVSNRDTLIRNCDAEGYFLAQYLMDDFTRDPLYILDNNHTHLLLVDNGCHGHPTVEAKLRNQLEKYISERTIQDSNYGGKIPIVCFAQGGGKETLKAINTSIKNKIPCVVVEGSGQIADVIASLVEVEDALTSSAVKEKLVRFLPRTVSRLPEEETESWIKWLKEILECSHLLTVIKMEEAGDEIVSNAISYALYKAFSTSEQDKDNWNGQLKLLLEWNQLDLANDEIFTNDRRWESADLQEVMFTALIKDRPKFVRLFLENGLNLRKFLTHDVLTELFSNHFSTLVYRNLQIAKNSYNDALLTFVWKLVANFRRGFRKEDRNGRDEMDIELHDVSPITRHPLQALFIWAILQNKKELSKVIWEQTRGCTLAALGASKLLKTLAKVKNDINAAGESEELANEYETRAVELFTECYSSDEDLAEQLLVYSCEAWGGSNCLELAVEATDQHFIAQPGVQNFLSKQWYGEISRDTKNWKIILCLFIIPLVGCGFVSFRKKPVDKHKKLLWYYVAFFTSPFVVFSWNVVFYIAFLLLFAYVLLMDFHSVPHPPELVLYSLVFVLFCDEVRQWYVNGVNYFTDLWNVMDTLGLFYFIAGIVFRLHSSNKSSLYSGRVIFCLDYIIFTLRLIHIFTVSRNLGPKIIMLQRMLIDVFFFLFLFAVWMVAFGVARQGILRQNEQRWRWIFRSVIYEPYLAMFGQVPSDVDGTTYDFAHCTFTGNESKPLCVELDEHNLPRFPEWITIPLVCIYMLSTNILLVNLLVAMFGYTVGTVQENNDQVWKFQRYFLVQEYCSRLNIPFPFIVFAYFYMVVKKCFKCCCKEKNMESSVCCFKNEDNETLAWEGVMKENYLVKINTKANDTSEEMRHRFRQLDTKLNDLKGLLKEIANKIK
Protocol description: Agonist activity at human TRPM8 expressed in HEK293 cells assessed as increase in intracellular calcium level after 15 mins by Fluo-3-AM dye-based fluorescence assay
Type: cell-based
Assay context: read-out: EC50
pEC50 here: minus log base 10 of the concentration, concentration in moles per litre.

Consider the reported pEC50 for these compounds:
sample_smiles=CCN(Cc1nccs1)C(=O)COc1ccc(C)cc1 study_system="Transient receptor potential cation channel subfamily M member 8 (Homo sapiens)" reported_property=pEC50 recorded_value=5.51
sample_smiles=Cc1ccc(OCC(=O)N(Cc2cccs2)c2ccccc2)cc1 study_system="Transient receptor potential cation channel subfamily M member 8 (Homo sapiens)" reported_property=pEC50 recorded_value=7.64
sample_smiles=Cc1ccc(OCC(=O)N(Cc2cccs2)c2ncccn2)cc1 study_system="Transient receptor potential cation channel subfamily M member 8 (Homo sapiens)" reported_property=pEC50 recorded_value=5.43

Query: Specify measured pEC50 for CCN(Cc1ccc(C)s1)C(=O)COc1ccc(C)cc1 .
Reply: 6.75

Query: Specify measured pEC50 for CCN(Cc1cccs1)C(=O)CCc1ccc(C)cc1 .
Reply: 7.03

Query: Specify measured pEC50 for CCN(Cc1cccs1)C(=O)COc1ccc(C(C)C)cc1 .
Reply: 6.40

Query: Specify measured pEC50 for Cc1ccc(OCC(=O)N(Cc2cccs2)c2ccon2)cc1 .
Reply: 8.70

Query: Specify measured pEC50 for CCN(Cc1cccs1)C(=O)C[C@H](O)c1ccccc1 .
Reply: 4.28

Query: Specify measured pEC50 for CCN(Cc1cccs1)C(=O)COc1cccc(C)c1 .
Reply: 7.01

Query: Specify measured pEC50 for Cc1ccc(OCC(=O)N(Cc2cccs2)C(C)C)cc1 .
Reply: 7.15

Query: Specify measured pEC50 for CCN(Cc1cccs1)C(=O)c1cc2cc(OC)ccc2o1 .
Reply: 7.10

Query: Specify measured pEC50 for Cc1ccc(OCC(=O)N(Cc2cccs2)C2CCCCC2)cc1 .
Reply: 4.40

Query: Specify measured pEC50 for CCN(Cc1cccs1)C(=O)/C=C/c1ccc2c(c1)OCO2 .
Reply: 9.15

Query: Specify measured pEC50 for CCN(Cc1c[nH]nn1)C(=O)COc1ccc(C)cc1 .
Reply: 4.51

Query: Specify measured pEC50 for CCN(Cc1ccco1)C(=O)COc1ccc(C)cc1 .
Reply: 6.31

Query: Specify measured pEC50 for CCN(Cc1cccs1)C(=O)COc1ccc(CO)cc1 .
Reply: 4.66

Query: Specify measured pEC50 for CCN(Cc1cc[nH]c1)C(=O)COc1ccc(C)cc1 .
Reply: 4.66

Query: Specify measured pEC50 for CCN(Cc1cccs1)C(=O)COc1ccc2c(c1)COC2 .
Reply: 7.21
